Data provenance is patent EP4786492A1.

Measured MFI, listed per entry.
biological target: mouse DLL3 on CHO-K1-mDLL3 cells (mouse) (UniProt O88516); assay: FACS, CHO-K1-mDLL3 cells, 0.8 nM antibody
Sequence (O88516 other isoform, or with tags, fused parts or gaps limits assumed): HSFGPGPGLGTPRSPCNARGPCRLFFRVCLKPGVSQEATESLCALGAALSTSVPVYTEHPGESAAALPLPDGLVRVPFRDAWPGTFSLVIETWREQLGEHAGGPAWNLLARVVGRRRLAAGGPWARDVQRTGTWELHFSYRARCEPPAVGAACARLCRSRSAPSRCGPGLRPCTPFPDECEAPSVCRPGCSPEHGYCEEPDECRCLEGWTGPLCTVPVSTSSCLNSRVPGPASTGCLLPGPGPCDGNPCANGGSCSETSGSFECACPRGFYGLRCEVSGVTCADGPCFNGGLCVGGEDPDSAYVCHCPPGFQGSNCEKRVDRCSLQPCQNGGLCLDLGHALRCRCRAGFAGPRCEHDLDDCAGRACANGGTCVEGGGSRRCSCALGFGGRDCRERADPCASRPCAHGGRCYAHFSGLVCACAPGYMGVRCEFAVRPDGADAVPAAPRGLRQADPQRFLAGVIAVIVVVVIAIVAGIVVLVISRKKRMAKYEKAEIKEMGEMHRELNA

BINDER: Hab006VL4VH2-hFc (scFv, part only; not given: scFv linker and human IgG1 Fc, V domains shown, not shown: another chain or arm of the molecule; a dimerising Fc or GST; small tags and cut ends) VL: DIVMTQSPDSLAVSLGERATINCRATKSISKYLAWYQQKPGQTNKLLIFSGSTLQSGVPDRFSGSGSGTDFTLTISSLQAEDVAVYYCQQHHEYPYTFGGGTKVEIK VH: EVQLVQSGAEVKKPGASVKVSCKASGYTFTSYWMHWVRQAPGQRLEWMGVIDPSDSLANYNQEFKGRVTLTVDTSASTAYMELSSLRSEDTAVYYCARDSTVVAPMDYWGQGTTVTVSS
MFI, MFI: 495
--
BINDER: Hab009VL2aVH1-hFc (scFv, part only; not given: VL-VH linker and human IgG1 Fc, V domains shown, not shown: another chain or arm of the molecule; a dimerising Fc or GST; small tags and cut ends) VL: DIVMTQSPLSLPVTPGEPASISCRASQTISDYLHWYLQKPGQSPRLLIKYASQSISGVPDRFSGSGSGTDFTLKISRVEAEDVGVYYCQQGHSFPLTFGQGTKLEIK VH: EVQLVQSGAEVKKPGASVKVSCKASGYTFTSYWMHWVRQAPGQRLEWMGTIYPGNSDTRYNQKFKDRVTITADTSASTAYMELSSLRSEDTAVYYCTRSYDYGDLDYWGQGTTVTVSS
MFI, MFI: 338
